Hi there, I'd appreciate the recorded Selection ratio (KDR phosphorylation IC50 / c-fms phosphorylation IC50) for every entry that follows.
molecular target: Human KDR (Homo sapiens); construct: expressed in transfected cells; host or cells: NIH3T3 cells (mouse fibroblasts); experiment: Inhibition of KDR phosphorylation in human KDR-transfected NIH3T3 cells (ELISA); type: cell-based; settings: class 0-3;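 also: class 2 means ratio of 10 or more and class 3 means 50 or more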
Sequence (P35968 20-1356): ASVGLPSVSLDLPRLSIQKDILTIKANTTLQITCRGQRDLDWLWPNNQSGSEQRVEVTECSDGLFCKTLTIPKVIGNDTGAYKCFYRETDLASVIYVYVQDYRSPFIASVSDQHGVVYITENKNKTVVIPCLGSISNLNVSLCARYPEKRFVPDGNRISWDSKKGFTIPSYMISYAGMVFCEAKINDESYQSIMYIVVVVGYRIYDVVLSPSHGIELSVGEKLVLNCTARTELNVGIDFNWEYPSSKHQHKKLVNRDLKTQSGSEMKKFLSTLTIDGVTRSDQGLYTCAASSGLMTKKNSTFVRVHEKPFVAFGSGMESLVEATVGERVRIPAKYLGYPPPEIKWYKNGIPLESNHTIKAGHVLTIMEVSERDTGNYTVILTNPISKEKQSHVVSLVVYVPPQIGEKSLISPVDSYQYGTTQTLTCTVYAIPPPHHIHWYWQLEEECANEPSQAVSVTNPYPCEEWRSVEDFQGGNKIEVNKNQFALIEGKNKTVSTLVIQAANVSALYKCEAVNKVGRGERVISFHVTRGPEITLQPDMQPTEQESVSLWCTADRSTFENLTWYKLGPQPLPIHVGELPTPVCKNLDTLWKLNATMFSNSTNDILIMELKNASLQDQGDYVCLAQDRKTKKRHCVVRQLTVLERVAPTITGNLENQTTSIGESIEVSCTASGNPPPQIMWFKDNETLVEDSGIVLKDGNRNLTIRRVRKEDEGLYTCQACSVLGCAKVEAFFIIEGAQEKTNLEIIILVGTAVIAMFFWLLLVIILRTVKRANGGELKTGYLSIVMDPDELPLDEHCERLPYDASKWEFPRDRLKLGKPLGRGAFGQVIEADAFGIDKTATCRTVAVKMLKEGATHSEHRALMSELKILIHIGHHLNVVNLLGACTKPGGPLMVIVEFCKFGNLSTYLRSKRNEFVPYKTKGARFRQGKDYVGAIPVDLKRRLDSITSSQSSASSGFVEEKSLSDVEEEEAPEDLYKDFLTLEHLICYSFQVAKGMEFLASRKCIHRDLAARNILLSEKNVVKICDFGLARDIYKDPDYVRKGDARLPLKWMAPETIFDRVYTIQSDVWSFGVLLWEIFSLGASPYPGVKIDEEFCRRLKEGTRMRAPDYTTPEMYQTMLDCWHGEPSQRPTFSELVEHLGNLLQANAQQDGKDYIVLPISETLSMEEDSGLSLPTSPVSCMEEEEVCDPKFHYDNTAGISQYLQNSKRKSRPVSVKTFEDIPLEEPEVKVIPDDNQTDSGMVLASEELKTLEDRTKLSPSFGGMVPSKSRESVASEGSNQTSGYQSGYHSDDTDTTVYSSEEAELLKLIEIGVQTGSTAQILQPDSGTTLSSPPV

Molecule: COc1cc2nccc(Oc3ccc(NC(=O)N[C@@H](C)c4ccc(F)cc4)c(F)c3)c2cc1OC
System tested: Human KDR (Homo sapiens)
Result: 2 (when the value was 10 or more)
--
Molecule: COc1cc(Oc2ccnc3cc(OC)c(OC)cc23)ccc1NC(=O)N[C@@H](C)c1ccc(F)cc1
System tested: Human KDR (Homo sapiens)
Result: 3 (when the value was 50 or more)
--
Molecule: COc1cc2nccc(Oc3ccc(NC(=O)N[C@@H](C)c4ccc(F)cc4)c(C)c3C)c2cc1OC
System tested: Human KDR (Homo sapiens)
Result: 1 (when the value was 5 or more)
--
Molecule: COc1ccc([C@@H](C)NC(=O)Nc2ccc(Oc3ccnc4cc(OC)c(OC)cc34)cc2)cc1
System tested: Human KDR (Homo sapiens)
Result: 1 (when the value was 5 or more)
--
Molecule: COc1cc2nccc(Oc3ccc(NC(=O)N[C@@H](C)c4nccs4)cc3)c2cc1OC
System tested: Human KDR (Homo sapiens)
Result: 2 (when the value was 10 or more)

For each listed entry, give its Selection ratio (KDR phosphorylation IC50 / c-fms phosphorylation IC50).
1. COc1cc2nccc(Oc3ccc(NC(=O)N[C@@H](C)c4ccc(F)cc4)c(C(F)(F)F)c3)c2cc1OC
2. COc1cc2nccc(Oc3ccc(NC(=O)NC(C)c4nccs4)c(F)c3)c2cc1OC (stereo not shown)
3. COc1cc2nccc(Oc3ccc(NC(=O)N[C@@H](C)c4nccs4)cc3OC)c2cc1OC

2 (when the value was 10 or more)
2 (when the value was 10 or more)
3 (when the value was 50 or more)

For Human KDR (Homo sapiens), give the measured Selection ratio (KDR phosphorylation IC50 / c-fms phosphorylation IC50) of the entry COc1cc2nccc(Oc3ccc(NC(=O)N[C@@H](C)c4ccc(F)cc4)cc3)c2cc1OC 2 (when the value was 10 or more)
